- measurement.protocol: Solubility test in various carriers (Example 1)
- Assay type: physicochemical
- setup.conditions: organic solvent or mixture, thermodynamic from solid; carrier: PEG 400; read-out: Solubility after 2 h
measured.endpoint: solubility at 2 h (mg/mL)
Answer with a number only, understood to be in mg/mL.

GET /value?item= Cc1c(N(C(=O)c2cc(-c3cc(Cl)ccc3C(=O)N3Cc4ccccc4C[C@H]3CN3CCOCC3)n(C)c2C)c2ccc(O)cc2)cc(C#N)n1C &field=solubility at 2 h returns 11.7

###

- measurement.protocol: PK parameters in RS4;11 grafted female SCID mice
- Assay type: in vivo
- setup.conditions: female, SCID, mouse, iv; 40 mg/kg, one i.v. treatment; blood; administration to the last point
measured.endpoint: AUC(0-t) (ng·h/mL)
Answer with a number only, understood to be in ng·h/mL.

GET /value?item= Cc1c(N(C(=O)c2cc(-c3cc(Cl)ccc3C(=O)N3Cc4ccccc4C[C@H]3CN3CCOCC3)n(C)c2C)c2ccc(O)cc2)cc(C#N)n1C [Compound A, H2SO4] &field=AUC(0-t) returns 45800

###

- measurement.protocol: Solubility test in various carriers (Example 1)
- Assay type: physicochemical
- setup.conditions: aqueous with cosolvent or surfactant or cyclodextrin, thermodynamic from solid; carrier: Dexsolve, 20% by weight cyclodextrin solution; read-out: Solubility after 24 h
measured.endpoint: solubility at 24 h (mg/mL)
Answer with a number only, understood to be in mg/mL.

GET /value?item= Cc1c(N(C(=O)c2cc(-c3cc(Cl)ccc3C(=O)N3Cc4ccccc4C[C@H]3CN3CCOCC3)n(C)c2C)c2ccc(O)cc2)cc(C#N)n1C &field=solubility at 24 h returns 23.2

###

- measurement.protocol: Aqueous solubility of Compound A
- Type: physicochemical
- setup.conditions: aqueous media, aqueous buffer; free base; across all pHs
measured.endpoint: solubility

GET /value?item= Cc1c(N(C(=O)c2cc(-c3cc(Cl)ccc3C(=O)N3Cc4ccccc4C[C@H]3CN3CCOCC3)n(C)c2C)c2ccc(O)cc2)cc(C#N)n1C [Compound A] &field=solubility returns < 10 µg/mL

###

- measurement.protocol: Solubility test in various carriers (Example 1)
- Type: physicochemical
- setup.conditions: thermodynamic from solid; carrier: Water; read-out: Solubility after 2 h
measured.endpoint: solubility at 2 h (µg/mL)
Answer with a number only, understood to be in µg/mL.

GET /value?item= Cc1c(N(C(=O)c2cc(-c3cc(Cl)ccc3C(=O)N3Cc4ccccc4C[C@H]3CN3CCOCC3)n(C)c2C)c2ccc(O)cc2)cc(C#N)n1C [Compound A, H2SO4] &field=solubility at 2 h returns 2870

###

- measurement.protocol: Aqueous solubility of Compound A
- Assay type: physicochemical
- setup.conditions: aqueous medium, aqueous buffer; at pH=2.5
measured.endpoint: solubility (µg/mL)
Answer with a number only, understood to be in µg/mL.

GET /value?item= Cc1c(N(C(=O)c2cc(-c3cc(Cl)ccc3C(=O)N3Cc4ccccc4C[C@H]3CN3CCOCC3)n(C)c2C)c2ccc(O)cc2)cc(C#N)n1C [Compound A, H2SO4] &field=solubility returns 1400

###

- measurement.protocol: Solubility test of Compound A, H2SO4 in a HP-β-cyclodextrin as a function of the pH
- Assay type: physicochemical
- setup.conditions: aqueous HP-β-cyclodextrin (Cavitron W7HP5) solution, aqueous with cosolvent or surfactant or cyclodextrin, thermodynamic from solid; Cavitron W7HP5 200 mg/mL; pH 1.86 (without adjustment); read-out: Solubility after 24 h
measured.endpoint: solubility at 24 h
# number then unit; no other words

GET /value?item= Cc1c(N(C(=O)c2cc(-c3cc(Cl)ccc3C(=O)N3Cc4ccccc4C[C@H]3CN3CCOCC3)n(C)c2C)c2ccc(O)cc2)cc(C#N)n1C &field=solubility at 24 h returns 21.6 mg/mL

###

- measurement.protocol: Solubility test in various carriers (Example 1)
- Assay type: physicochemical
- setup.conditions: aqueous buffer, thermodynamic from solid; carrier: Acetate buffer (pH=4; 50 mM); read-out: Solubility after 24 h
measured.endpoint: solubility at 24 h

GET /value?item= Cc1c(N(C(=O)c2cc(-c3cc(Cl)ccc3C(=O)N3Cc4ccccc4C[C@H]3CN3CCOCC3)n(C)c2C)c2ccc(O)cc2)cc(C#N)n1C &field=solubility at 24 h returns 180 µg/mL

###

- measurement.protocol: Test of maximum solubility of Compound A, HCl in a HP-β-cyclodextrin as a function of the pH
- Format: physicochemical
- setup.conditions: Cavitron W7HP5 solution, aqueous with cosolvent or surfactant or cyclodextrin, thermodynamic from solid; Cavitron W7HP5 20% by weight; pH = 4 (acetate buffer); read-out: Solubility after 24 h
- Description: The solubility of Compound A, HCl was studied in the presence of a HP-β-cyclodextrin as a function of the pH by means of various buffers (acetate pH=4 and phosphate pH=7.4). 0.75 g of sodium acetate trihydrate (NaC2H3O2, 3H2O) is introduced into a 250 mL graduated flask. […] Approximately 10 mg of Compound A, HCl are weighed. […] The suspension so obtained is passed through a 0.45 μm filter before being analysed by HPLC chromatography.
Where a name gives a salt, the structure may show the parent alone.
measured.endpoint: solubility at 24 h
# number then unit; no other words

GET /value?item= Cc1c(N(C(=O)c2cc(-c3cc(Cl)ccc3C(=O)N3Cc4ccccc4C[C@H]3CN3CCOCC3)n(C)c2C)c2ccc(O)cc2)cc(C#N)n1C [Compound A, HCl] &field=solubility at 24 h returns 13 mg/mL

###

- measurement.protocol: Solubility test in various carriers (Example 1)
- Format: physicochemical
- setup.conditions: 2% Kolliphor ELP solution, aqueous with cosolvent or surfactant or cyclodextrin, thermodynamic from solid; carrier: 2% Kolliphor ELP; read-out: Solubility after 2 h
measured.endpoint: solubility at 2 h (µg/mL)
Answer with a number only, understood to be in µg/mL.

GET /value?item= Cc1c(N(C(=O)c2cc(-c3cc(Cl)ccc3C(=O)N3Cc4ccccc4C[C@H]3CN3CCOCC3)n(C)c2C)c2ccc(O)cc2)cc(C#N)n1C &field=solubility at 2 h returns 2080

###

- measurement.protocol: Solubility test in various carriers (Example 1)
- Assay type: physicochemical
- setup.conditions: organic solvent or mixture, thermodynamic from solid; carrier: PEG 400; read-out: Solubility after 24 h
measured.endpoint: solubility at 24 h (mg/mL)
Answer with a number only, understood to be in mg/mL.

GET /value?item= Cc1c(N(C(=O)c2cc(-c3cc(Cl)ccc3C(=O)N3Cc4ccccc4C[C@H]3CN3CCOCC3)n(C)c2C)c2ccc(O)cc2)cc(C#N)n1C [Compound A, H2SO4] &field=solubility at 24 h returns 11.2

###

- measurement.protocol: Solubility test in various carriers (Example 1)
- Assay type: physicochemical
- setup.conditions: aqueous with cosolvent or surfactant or cyclodextrin, thermodynamic from solid; in the carriers permitting substantial solubilisation (cyclodextrins, PEG400, PEG400/EtOH/0.9% NaCl); read-out: solubilities after 24 hours' stirring
measured.endpoint: solubility at 24 h

GET /value?item= Cc1c(N(C(=O)c2cc(-c3cc(Cl)ccc3C(=O)N3Cc4ccccc4C[C@H]3CN3CCOCC3)n(C)c2C)c2ccc(O)cc2)cc(C#N)n1C &field=solubility at 24 h returns 10 to 30 mg/mL

###

- measurement.protocol: Solubility test in various carriers (Example 1)
- Format: physicochemical
- setup.conditions: 2% Polysorbate 80 solution, aqueous with cosolvent or surfactant or cyclodextrin, thermodynamic from solid; carrier: 2% Polysorbate 80; read-out: Solubility after 24 h
measured.endpoint: solubility at 24 h (µg/mL)
Answer with a number only, understood to be in µg/mL.

GET /value?item= Cc1c(N(C(=O)c2cc(-c3cc(Cl)ccc3C(=O)N3Cc4ccccc4C[C@H]3CN3CCOCC3)n(C)c2C)c2ccc(O)cc2)cc(C#N)n1C &field=solubility at 24 h returns 1960

###

- measurement.protocol: PK parameters in RS4;11 grafted female SCID mice
- Type: in vivo
- setup.conditions: female, SCID, mouse, blood, iv; 40 mg/kg i.v.
measured.endpoint: Cmax (ng/mL)
Answer with a number only, understood to be in ng/mL.

GET /value?item= Cc1c(N(C(=O)c2cc(-c3cc(Cl)ccc3C(=O)N3Cc4ccccc4C[C@H]3CN3CCOCC3)n(C)c2C)c2ccc(O)cc2)cc(C#N)n1C &field=Cmax returns 23300

###

- measurement.protocol: Test of maximum solubility of Compound A, HCl in a HP-β-cyclodextrin as a function of the pH
- Type: physicochemical
- setup.conditions: Cavitron W7HP5 solution, aqueous with cosolvent or surfactant or cyclodextrin, thermodynamic from solid; Cavitron W7HP5 20% by weight; pH = 7.4 (phosphate buffer); read-out: Solubility after 24 h
Counter-ions that a name gives are not always drawn.
measured.endpoint: solubility at 24 h (µg/mL)
Answer with a number only, understood to be in µg/mL.

GET /value?item= Cc1c(N(C(=O)c2cc(-c3cc(Cl)ccc3C(=O)N3Cc4ccccc4C[C@H]3CN3CCOCC3)n(C)c2C)c2ccc(O)cc2)cc(C#N)n1C [Compound A, HCl] &field=solubility at 24 h returns 1690
